Test system: HEK-293T
assayMethodText: Incucyte cell viability with HEK293T; also: unitless GR value; below 1 slowed growth and below 0 cell loss
Assay type: toxicity, cell-based
setupConditions: human, 24 h, 10 µM, compound concentration 10 uM, replicate number 2
# label = yes if Growth Rate < 0.8 else no

1. CN1CCc2cc(Nc3ncc(C(F)(F)F)c(NCc4cc[nH]n4)n3)ccc2C1 yes
2. O=c1[nH]c(CS[C@H]2CC[C@H](O)CC2)nc2cc(OCC3CC3)cc(F)c12 no
3. CCc1cncnc1N1CCN(Cc2nc3cc(C(F)(F)F)ccc3[nH]2)CC1 yes
4. C=C1/C(=C\C=C2/CCC[C@]3(C)[C@@H]([C@H](C)CCCC(C)(C)O)CC[C@@H]23)C[C@@H](O)C[C@@H]1O yes
5. CC(=O)c1c(C)c2cnc(Nc3ccn(C)n3)nc2n(C2CCCC2)c1=O no
